Source listed as PubChem BioAssay (NCI).

System: EKVX NSCLC
Test: NCI-60 one-dose screen, 48 h (100 = growth as untreated, 0 = no growth, -100 = all killed)
Details: 10 µM
Protocol: Growth inhibition of the EKVX human Non-Small Cell Lung tumor cell line is measured as a screen for anti-cancer activity. Cells are grown in 96 well plates and exposed to the test compound for 48 hours. Compounds are tested at a single concentration, which is 10^-5 M for most compounds. The reported endpoint is percent growth (GI% or GIPRCNT), where numbers from 0 - 100% represent growth inhibition, and numbers from -100% - 0 represent cell death. […]
About 83,000 compounds went through this panel and 20% of them were active in at least one assay; those are over-represented in the sample as a whole.
Each entry below carries its reported growth.
Return type: number; implicit unit %.

* NCCC(=O)c1ccc(Cl)cc1 | 110
* CCOC(=O)C(=O)C=P(c1ccccc1)(c1ccccc1)c1ccccc1 | 105
* O=C(CCl)Nc1ccc2c(c1)C(=O)c1ccc(NC(=O)CCl)cc1C2=O | -15.2
* CCS(=O)(=O)c1cc(=O)[nH]c(=O)[nH]1 | 91.4
* Cc1cc(N)c(S(=O)(=O)O)c(N)c1 | 98.9

# growth (molecule: `C/C(=C\c1cc(Cl)ccc1OCC(=O)O)[N+](=O)[O-]` ) is 98.2

Sure, the documented growth for `Cc1ccc(/C=C2\SC(=S)N(c3ccc(F)cc3)C2=O)o1` is 82.4

Looking up CC1(O)OC(COc2ccc(Cl)cc2)COC1O (stereo not drawn) , I see its growth listed as 94.7

For record CCCCC(O)c1ccccc1 (stereo not drawn) the listed growth is 110

The molecule `c1cc2cccc3c4cccc5cccc(c(c1)c23)c54` showed growth equal to 104

Summary for this molecule, O=S(=O)(O)CC(O)CN1CCN(CCO)CC1 (stereo not drawn) : growth is 119

CC(=O)OCCC(C)CCC=C(C)C (stereo not drawn) has a reported growth of 100

// recorded growth for CC(=O)OC(OC(C)=O)C1CCCO1 (stereo not drawn) : 97.7

response.value for `C/C(=C\c1ccc([N+](=O)[O-])cc1)C(=O)O` (field: growth) = 94.7

growth reported for this molecule `Cc1cc(C(C)(C)C)cc(C)c1Br` : 100

Entry OC1CCCc2ccccc21 (stereo not drawn) — recorded growth = 100
